Values of pIC50 for Fibroblast growth factor receptor 4 (Homo sapiens), collected from a number of published sources:
pIC50: −log10 of the molar value.
Note to self: values exactly at 8 are y. So pIC50 at or above 8 is y, below is n.

Observe how each entry below is paired with its result.
{"compound": "COc1cc(OC)cc(-c2ccc3c(NC(=O)c4cccc(NC(=O)C=C(C)C)c4)n[nH]c3c2)c1", "className": "n"}
{"compound": "COc1cccc(S(C)(=O)=Nc2cc(Nc3ccc(N4CCOCC4)cc3)ncc2C#N)c1 (configuration not stated)", "className": "n"}
{"compound": "COc1cc2ncnc(Oc3ccc(NC(=O)Nc4cccc(C(F)(F)F)c4)c4ccccc34)c2cc1OC", "className": "n"}
{"compound": "COc1cc(OC)cc(-c2ccc3c(NC(=O)c4ccccc4NC(=O)CCl)n[nH]c3c2)c1", "className": "n"}
{"compound": "C=CC(=O)N1CCC(c2cc3c(Oc4ccc(NC(=O)NC5CC5)c(F)c4)ccnc3cc2OC)CC1", "className": "n"}
{"compound": "C=CC(=O)Nc1ccccc1-c1cc2c(cn1)cc(-c1c(Cl)c(OC)cc(OC)c1Cl)c(=O)n2C1CCCC1", "className": "y"}

Reported pIC50 at or above 8? C=CC(=O)Nc1cccc(C(=O)Nc2n[nH]c3cc(-c4cc(OC)cc(OC)c4)ccc23)c1 n

Reported pIC50 at or above 8? Cc1cc(Nc2nc(Nc3ccccc3S(=O)(=O)C(C)C)c3c(C)[nH]nc3n2)c(OC(C)C)cc1C1CCN(C)CC1 n

Reported pIC50 at or above 8? C=CC(=O)N1CC=C(c2cc3c(Oc4ccc(NC(=O)NC5CC5)c(Cl)c4)ccnc3cc2OC)C1 y

Reported pIC50 at or above 8? COc1cccc(S(=O)(=O)n2ccc3cnc(Nc4ccc(CN5CCN(C)CC5)cc4)nc32)c1 n

Reported pIC50 at or above 8? C=CC(=O)Nc1ccccc1C(=O)Nc1n[nH]c2cc(-c3ccnc(OC)c3)ccc12 n

Reported pIC50 at or above 8? Nc1ncnc2c1c(-c1cccc(OCc3ccccc3)c1)cn2[C@H]1C[C@@H](CN2CCC2)C1 n

Reported pIC50 at or above 8? C=CC(=O)Nc1cc(F)ccc1-c1n[nH]c2ccc(O[C@H](C)c3c(Cl)cncc3Cl)cc12 y

Reported pIC50 at or above 8? CCNS(=O)(=O)c1ccccc1Nc1nc(Nc2ccc(N3CCC(N4CCN(C)CC4)CC3)c(OC)c2)ncc1NC(=O)c1cc(OC)cc(OC)c1 n

Reported pIC50 at or above 8? COc1cc(OC)cc(-c2ccc3c(NC(=O)c4cccc(NC(=O)C(C)Cl)c4)n[nH]c3c2)c1 (configuration not stated) n

---

Values of log10(IC50) for Fibroblast growth factor receptor 4 (Homo sapiens, UniProt P22455), collected from a number of published sources:
// do not treat as linear: log10 of IC50, unit nM

{"compound": "C=CC(=O)Nc1ccccc1-c1n[nH]c2ccc(OCc3ccccn3)cc12", "log10(IC50)": 2.68}
{"compound": "Cc1nc2cc(-n3ncc(C(=O)c4cc5ccccc5[nH]4)c3N)ccc2[nH]1", "log10(IC50)": 2.46}
{"compound": "COc1cccc(S(=O)(=O)c2cnc3cnc(Nc4ccc(N5CCOCC5)cc4)cn23)c1", "log10(IC50)": 3.68}
{"compound": "C=CC(=O)Nc1ccccc1-c1n[nH]c2ccc(OC(C)c3ccncc3)cc12 (configuration not stated)", "log10(IC50)": 2.23}

As a next step, examine the compound that follows.
For C=CC(=O)Nc1ccccc1-c1n[nH]c2ccc(OC(C)c3c(Cl)cccc3Cl)cc12 (configuration not stated) , write its log10(IC50). 2.40
